Hey, just so you know, these numbers are from PubChem BioAssay (NCI).

# Test system: SF-295 CNS
# EXPERIMENT NOTES: NCI tumour cell line growth inhibition, 48 h
TGI values for the molecules below.

MOLECULE: O=C(Cc1ccccc1)NN1C(=O)C(Cl)C1c1cc(Br)ccc1O (stereo not drawn)
ENDPOINT RESULT: 94.3 µM
--
MOLECULE: CNc1ccc(C(=O)CC(O)CCC(C)C2OC(=O)CC(O)CC(=O)CC(O)CC(O)CC(O)CC(O)CC3(O)CC(O)C(C(=O)OC)C(CC(O[C@@H]4O[C@H](C)[C@@H](O)[C@H](N)[C@@H]4O)/C=C/C=C/C=C/C=C/C=C/C=C/C=C/C2C)O3)cc1 (stereo partly drawn)
ENDPOINT RESULT: 9.67 µM
--
MOLECULE: CC(=O)OC(/C=C/c1ccccc1)=C(OC(C)C)/C1=C(\c2ccccc2)SCCCSC1=O
ENDPOINT RESULT: > 100 µM
--
MOLECULE: O=C1CC(=Nc2ccc(Cl)cc2)C(c2ccccc2)N1c1ccccc1 (stereo not drawn)
ENDPOINT RESULT: > 100 µM
--
MOLECULE: O=C1C2C3C=C4c5ccccc5N(c5ccccc5)C4(C2C(=O)N1Cc1ccccc1)C1C(=O)N(Cc2ccccc2)C(=O)C31 (stereo not drawn)
ENDPOINT RESULT: > 100 µM

Entry CCCCN1C(=O)N(c2ccc(OCC)cc2)C2N(CCCC)C1C(C)(C)C2(C)C (stereo not drawn) — recorded TGI = > 100 µM

So, COC1C=CC(O)C(CO)O1 (stereo not drawn) ? Its TGI was > 100 µM

Reported TGI for CCOC(=O)N/N=C(/N)c1cccc([N+](=O)[O-])c1 was > 100 µM

---

# Tested on: HOP-18 NSCLC
# EXPERIMENT NOTES: NCI tumour cell line growth inhibition, 48 h
MEASURED PROPERTY: TGI

Field: example entries. Status: answers known.
COMPOUND: O=C1C2C3C=C4c5ccccc5N(c5ccccc5)C4(C2C(=O)N1Cc1ccccc1)C1C(=O)N(Cc2ccccc2)C(=O)C31 (stereo not drawn)
ENDPOINT RESULT: > 100 µM
--
COMPOUND: COc1ccccc1CCc1cc(OC)c(OC)c(OC)c1
ENDPOINT RESULT: > 100 µM

We now examine a further compound.
For this compound ( CC1NC(=O)CC(c2ccccc2)N(N=O)C1c1ccccc1 (stereo not drawn) ), measured TGI is > 100 µM

---

# Test system: TK-10 renal
# EXPERIMENT NOTES: NCI tumour cell line growth inhibition, 48 h
Given measured TGI, output 1 if it is greater than or equal to 30 µM and 0 if not.

Example entries and their recorded answers appear below.
COMPOUND: COc1ccc2ccccc2c1/C=C/C(=O)c1ccccc1
ASSIGNED LABEL: 0
//
COMPOUND: CC12C(=O)CC(CC1=O)C2(C)C
ASSIGNED LABEL: 1
//
COMPOUND: CC1=NNC(N)=N/C1=C\C(Sc1ccc(Cl)cc1)c1ccc([N+](=O)[O-])cc1 (centres undefined)
ASSIGNED LABEL: 1
//
COMPOUND: COC1=C(C)C(=O)c2c(c(COC(N)=O)c3n2CC2C3N2C)C1=O (centres undefined)
ASSIGNED LABEL: 0
//
COMPOUND: O=C(O)C1OC(n2cc(F)c(=O)[nH]c2=O)CC1O (centres undefined)
ASSIGNED LABEL: 1

Query compound follows.
Hi team, for CCOC(=O)[C@@H](N)CCC(=O)N[C@@H](CSCc1ccccc1)C(=O)N[C@@H](C(=O)OCC)c1ccccc1 , is the recorded TGI at or above 30 µM?
1
